Catalogue of molecules with associated TGI
Test system: HOP-92 NSCLC
Assay: NCI tumour cell line growth inhibition, 48 h
reported_metric: TGI

molecule: O=C(CCC1CCCCC1)NCc1ccc(C(=O)O)cc1
result: > 100 µM
--
molecule: CN(C)CCNC(=O)C1COc2cc(-c3cc(=O)c4ccccc4o3)ccc2O1 (stereo not given)
result: > 100 µM
--
molecule: [N-]=[N+]=Nc1cccc(-c2n[nH]c(Cl)cc2=O)c1
result: > 100 µM
--
molecule: COC(=O)C(/C(=N/NC(N)=O)C(=O)Nc1c(C)cccc1C(C)(C)C)c1nc2ccc(Cl)cc2[nH]c1=O (stereo not given)
result: > 100 µM
--
molecule: O=S(=O)(Nc1cc(F)cc(F)c1)c1ccc(-c2cnc(C3CC3)o2)cc1
result: 11.4 µM
--
molecule: CC(=O)/C(=C\c1c(-c2ccccc2)[nH]c2ccccc12)S(C)(=O)=O
result: > 75 µM
--
molecule: COc1cc2c3c(n(CCCN)c(=O)c2cc1OC)-c1ccc(N(C)C)cc1C3=O
result: 22.8 µM
--
molecule: CN(C)[C@@H]1C(=O)C(C(=O)NCN2CCN(C(=N)N=C(N)N)CC2)=C(O)[C@@]2(O)C(=O)C3=C(O)c4c(O)cccc4[C@@](C)(O)[C@H]3C[C@@H]12
result: 0.635 µM
--
molecule: COc1ccc(NC(=S)N/N=C(\c2ccccc2)c2ccccn2)cc1
result: 9.87 µM
--
molecule: Cc1ccccc1Cn1nc2ccccc2cc1=O
result: > 100 µM
--
molecule: CC(C)NCCCNc1c2ccccc2nc2cccc([N+](=O)[O-])c12
result: 0.0397 µM
--
molecule: N#Cc1c(=N)cc2c3ccccc3oc3c(C#N)c(N)[nH]c1c32
result: > 100 µM
--
molecule: CC(CO)CCC(O)C(C)(O)C1CCC2(O)C3=CC(=O)C4CC(O)C(O)CC4(C)C3CCC12C (stereo not given)
result: > 100 µM
--
molecule: NC(=O)CC(N)C(N)=O (stereo not given)
result: > 100 µM
--
molecule: COc1ccc(CNc2nc3ccccc3nc2C(=O)O)cc1OC
result: > 100 µM
--
molecule: NC(N)=NCCN1CCCCCc2ccccc21
result: > 10 µM
--
molecule: CCCCS/C(=C(/C#N)C(N)=O)c1cc2c([nH]1)CCCC2
result: 38.7 µM
--
molecule: O=S(=O)(Nc1nccs1)c1ccc(Nc2nc(-c3cccs3)nc3ccc(I)cc23)cc1
result: 40 µM
--
molecule: O=C(O)CCC1(C(=O)O)CCC(=O)c2ccccc21 (stereo not given)
result: > 100 µM
--
molecule: CC(C)NC1(C(N)=O)CCN(Cc2ccccc2)CC1
result: > 100 µM
--
molecule: CCCCCCCCCCCCCCCC(=O)Nc1ccn([C@@H]2O[C@H](CO)[C@@H](O)[C@@H]2C#N)c(=O)n1
result: > 100 µM
--
molecule: COc1ccccc1CNCCCCCNCCCCCCCCCCNCCCCCNCc1ccccc1OC
result: > 100 µM
--
molecule: CN1CCN(Cc2nc3cccc4c3c([n+]2[O-])-c2ccccc2-4)CC1
result: > 73.7 µM
--
molecule: O=C1NC(=NCc2c(Cl)cccc2Cl)S/C1=C\c1ccc2ncccc2c1
result: 20.2 µM
--
molecule: O=S(=O)(Nc1nc2ccccc2n1S(=O)(=O)c1ccccc1)c1ccccc1
result: > 100 µM
--
molecule: C=C1C(=O)C23CC1CCC2C12CO[C@H](O)[C@H]1C(C)(C)[C@H](OC(C)=O)C[C@H]2OC3=O (stereo not given in full)
result: 22.2 µM
--
molecule: O=C(NNC(=O)c1ccccc1S)c1ccccc1S
result: > 100 µM
--
molecule: CCCCCCCCCCCCC(CC)CCCCC(=O)O (stereo not given)
result: > 100 µM
--
molecule: C[C@]12CCC(=O)C(O)=C1CCC2=O
result: > 100 µM
--
molecule: Cn1cc(-c2csc(-c3c[nH]c4ccccc34)n2)c2cccnc21
result: 14.1 µM
--
molecule: O=C1C(c2ccccc2)=[N+]([O-])c2ccc(Cl)cc21
result: 0.096 µM
--
molecule: O=C1/C(=C/c2ccc(Cl)cc2)N=C(c2ccccc2)N1c1nc2ccc(Sc3ccccc3)cc2[nH]1
result: > 100 µM
--
molecule: [N-]=[N+]=Nc1ncnc2c1sc(=S)n2-c1ccccc1
result: > 100 µM
--
molecule: COc1ccc2c(c1)C(=O)C1(C2)[C@H](c2ccccc2)C2C(=O)c3cc(OC)ccc3C2[C@H]1c1ccccc1 (stereo not given in full)
result: > 100 µM
--
molecule: CC1(c2ccc(Cl)cc2)NC(=NCCO)c2ccccc21 (stereo not given)
result: 77.9 µM
